Cited source for all entries: patent US4454314A

test system: Past. mult. 1
Outcome measure: MIC
In your response, the unit should come after the numeric value.

CCC1OC(=O)CC(O)C(C)C(OC2OC(C)C(O)C(N(C)C)C2O)C(CC=O)CC(C)C(=O)C=CC(C)=CC1CO (stereo not shown) [(a), reference compound] ... 1.56 µg/mL
CCC1OC(=O)CC(OC(C)=O)C(C)C(OC2OC(C)C(O)C(N(C)C)C2O)C(CC=O)CC(C)C(=O)C=CC(C)=CC1CN(C)C (stereo not shown) ... 6.25 µg/mL
CCC1OC(=O)CC(O)C(C)C(OC2OC(C)C(O)C(N(C)C)C2O)C(CC=NN(C)C)CC(C)C(=O)C=CC(C)=CC1COS(=O)(=O)c1ccc(C)cc1 (stereo not shown) ... 3.12 µg/mL

Tested on Past. mult. 1: CCC1OC(=O)CC(O)C(C)C(OC2OC(C)C(O)C(N(C)C)C2O)C(CC=O)CC(C)C(=O)C=CC(C)=CC1CN(C)C (stereo not shown) . Observed MIC: 1.56 µg/mL

Tested on Past. mult. 1: CCC1OC(=O)CC(O)C(C)C(OC2OC(C)C(O)C(N(C)C)C2O)C(CC=O)CC(C)C(=O)C=CC(C)=CC1COS(=O)(=O)c1ccc(C)cc1 (stereo not shown) . Observed MIC: 3.12 µg/mL

Tested on Past. mult. 1: CCC1OC(=O)CC(O)C(C)C(OC2OC(C)C(O)C(N(C)C)C2O)C(CC=NN(C)C)CC(C)C(=O)C=CC(C)=CC1CI (stereo not shown) [(e)] . Observed MIC: 1.56 µg/mL

Tested on Past. mult. 1: CCC1OC(=O)CC(O)C(C)C(OC2OC(C)C(O)C(N(C)C)C2O)C(CC=O)CC(C)C(=O)C=CC(C)=CC1CCl (stereo not shown) . Observed MIC: 1.56 µg/mL

* * *

Observed MIC values for Staph. aur. 5 are listed in what follows.
In your response, the unit should come after the numeric value.

CCC1OC(=O)CC(O)C(C)C(OC2OC(C)C(O)C(N(C)C)C2O)C(CC=O)CC(C)C(=O)C=CC(C)=CC1CCl (stereo not drawn) ... 0.78 µg/mL
CCC1OC(=O)CC(O)C(C)C(OC2OC(C)C(O)C(N(C)C)C2O)C(CC=NN(C)C)CC(C)C(=O)C=CC(C)=CC1COS(=O)(=O)c1ccc(C)cc1 (stereo not drawn) ... 0.1 µg/mL

# evaluate next
In plain terms, CCC1OC(=O)CC(O)C(C)C(OC2OC(C)C(O)C(N(C)C)C2O)C(CC=O)CC(C)C(=O)C=CC(C)=CC1CO (stereo not drawn) [(a), reference compound] has a documented MIC of 0.78 µg/mL

* * *

Observed MIC values for Bac. sub. 1 are listed in what follows.
Report as a plain number; the unit µg/mL is understood.

Tested on Bac. sub. 1: CCC1OC(=O)CC(O)C(C)C(OC2OC(C)C(O)C(N(C)C)C2O)C(CC=NN(C)C)CC(C)C(=O)C=CC(C)=CC1CI (stereo not drawn) [(e)] . Observed MIC: 0.1

Tested on Bac. sub. 1: CCC1OC(=O)CC(O)C(C)C(OC2OC(C)C(O)C(N(C)C)C2O)C(CC=O)CC(C)C(=O)C=CC(C)=CC1CCl (stereo not drawn) [(g)] . Observed MIC: 0.1

Tested on Bac. sub. 1: CCC1OC(=O)CC(O)C(C)C(OC2OC(C)C(O)C(N(C)C)C2O)C(CC=O)CC(C)C(=O)C=CC(C)=CC1COS(=O)(=O)c1ccc(C)cc1 (stereo not drawn) [(b)] . Observed MIC: 0.78

Tested on Bac. sub. 1: CCC1OC(=O)CC(OC(C)=O)C(C)C(OC2OC(C)C(O)C(N(C)C)C2O)C(CC=O)CC(C)C(=O)C=CC(C)=CC1CN(C)C (stereo not drawn) [(f)] . Observed MIC: 0.78

Tested on Bac. sub. 1: CCC1OC(=O)CC(O)C(C)C(OC2OC(C)C(O)C(N(C)C)C2O)C(CC=NN(C)C)CC(C)C(=O)C=CC(C)=CC1COS(=O)(=O)c1ccc(C)cc1 (stereo not drawn) [(c)] . Observed MIC: 0.2

Tested on Bac. sub. 1: CCC1OC(=O)CC(O)C(C)C(OC2OC(C)C(O)C(N(C)C)C2O)C(CC=O)CC(C)C(=O)C=CC(C)=CC1CI (stereo not drawn) [(d)] . Observed MIC: 0.78
